- assay notes: in vivo
- measurement context: male, CD-1, mouse
reported property: Vd (L/kg)

compound: CC12CC3CC(C(=O)N[C@H]4CC[C@H](N)CC4)(C1)CC(c1ccccc1)(C3)C2.Cl (stereo partly shown) [Example A78]
unit: L/kg
obs value: 14

---

- assay notes: in vivo
- measurement context: male, CD-1, mouse, iv, 1 mg/kg

compound: CC12CC3CC(C(=O)N[C@H]4CC[C@H](N)CC4)(C1)CC(c1ccccc1)(C3)C2.Cl (stereo partly shown)
half-life / h: 5.4

---

- assay notes: in vitro
- measurement context: human

compound: CC12CC3CC(C(=O)N[C@H]4CC[C@H](N)CC4)(C1)CC(c1ccccc1)(C3)C2.Cl (stereo partly shown)
fraction unbound: 0.025

---

This listing pairs molecules with measured half-life.
- assay notes: in vitro
- measurement context: mouse, microsomes

molecule: CCC12CC3CC(C(=O)NC4CCNCC4)(C1)CC(c1ccccc1)(C3)C2 (centres unmarked)
half-life: > 2 h

molecule: O=C(NC1CCNCC1)C12CC3CC(C1)CC(c1ccccc1)(C3)C2
half-life: > 3.5 h

molecule: CC12CC3CC(C(=O)NC4CCNCC4)(C1)CC(c1ccccc1)(C3)C2 (centres unmarked)
half-life: > 4 h

molecule: CC12CC3CC(C(=O)N[C@H]4CC[C@H](N)CC4)(C1)CC(c1ccccc1)(C3)C2.Cl (some centres unmarked)
half-life: 4.45 h

molecule: CCC12CC3CC(C(=O)N[C@H]4CC[C@H](N)CC4)(C1)CC(c1ccccc1)(C3)C2 (some centres unmarked)
half-life: > 2 h

---

- assay notes: in vivo
- measurement context: male, CD-1, mouse, po, 10 mg/kg
reported property: Cmax (ng/mL)

molecule: CC12CC3CC(C(=O)N[C@H]4CC[C@H](N)CC4)(C1)CC(c1ccccc1)(C3)C2.Cl (stereo partly shown) [Example A78]
reported property: Cmax
obs value: 239

---

This listing pairs compounds with measured EC50.
- Test system: BDBV mucin-domain-deleted glycoprotein pseudotyped VSV
- assay notes: microbe, parasite or virus in culture
- Format: cell-based, Bundibugyo ebolavirus
- measurement context: Vesicular stomatitis virus, Vero, read-out: EC50 BDBV

compound: O=C(NC1CCNCC1)C12CC3CC(C1)CC(c1ccc(O)cc1)(C3)C2
tgt: BDBV mucin-domain-deleted glycoprotein pseudotyped VSV
EC50: > 1000 nM

compound: CN1CC(NC(=O)C23CC4CC(C2)CC(c2ccccc2)(C4)C3)C1
tgt: BDBV mucin-domain-deleted glycoprotein pseudotyped VSV
EC50: 220 nM

compound: CN1CCN(NC(=O)C23CC4CC(C)(C2)CC(c2ccccc2)(C4)C3)CC1 (centres unmarked)
tgt: BDBV mucin-domain-deleted glycoprotein pseudotyped VSV
EC50: 170 nM

compound: N[C@H]1CC[C@H](NC(=O)NC23CC4CC(C2)CC(c2ccccc2)(C4)C3)CC1 [Example E2]
tgt: BDBV mucin-domain-deleted glycoprotein pseudotyped VSV
EC50: 610 nM

compound: O=C(CC12CC3CC(CC(C3)C1)C2)N1CCC2(CCN(Cc3ccccc3)C2)C1 (centres unmarked)
tgt: BDBV mucin-domain-deleted glycoprotein pseudotyped VSV
EC50: 3300 nM

compound: CN1CC[C@@H](NC(=O)C23CC4CC(C)(C2)CC(c2ccccc2)(C4)C3)C1 (some centres unmarked)
tgt: BDBV mucin-domain-deleted glycoprotein pseudotyped VSV
EC50: 180 nM

compound: O=C(CC12CC3CC(C1)CC(c1ccccc1)(C3)C2)NCC(=O)N[C@@H]1CCN(Cc2ccccc2)C1
tgt: BDBV mucin-domain-deleted glycoprotein pseudotyped VSV
EC50: 320 nM

compound: O=C(NC12CC3CC(C1)CC(c1ccccc1)(C3)C2)C1CCNCC1
tgt: BDBV mucin-domain-deleted glycoprotein pseudotyped VSV
EC50: 270 nM

This collection of values is drawn from patent US12240857B2.
